- System: NCI-H647
- experimental.protocol: relative viability (nuclei count vs DMSO), 5 days (fraction); higher = more cells survive
- measurement.parameters: first compound 0.06325 µM
measurement.name: relative viability

INSERT INTO assay_data (molecule, measurement_name, numeric_result) VALUES
  ('CCNC(=O)c1noc(-c2cc(C(C)C)c(O)cc2O)c1-c1ccc(CN2CCOCC2)cc1 [Luminespib] + CS(=O)(=O)N1CCN(Cc2cc3nc(-c4cccc5[nH]ncc45)nc(N4CCOCC4)c3s2)CC1 [Pictilisib] (partner 1 µM)', 'relative viability', 0.0858),
  ('CCNC(=O)c1noc(-c2cc(C(C)C)c(O)cc2O)c1-c1ccc(CN2CCOCC2)cc1 [Luminespib] + N=C(N)NC(=N)NCCc1ccccc1 [Phenformin] (partner 250 µM)', 'relative viability', 0.0796),
  ('CCNC(=O)c1noc(-c2cc(C(C)C)c(O)cc2O)c1-c1ccc(CN2CCOCC2)cc1 [Luminespib] + CC(=O)c1c(C)c2cnc(Nc3ccc(N4CCNCC4)cn3)nc2n(C2CCCC2)c1=O [Palbociclib] (partner 0.5 µM)', 'relative viability', 0.0721),
  ('CCNC(=O)c1noc(-c2cc(C(C)C)c(O)cc2O)c1-c1ccc(CN2CCOCC2)cc1 [Luminespib] + O=C(CCCCCCC(=O)Nc1ccccc1)NO [Vorinostat] (partner 1 µM)', 'relative viability', 0.11),
  ('CCNC(=O)c1noc(-c2cc(C(C)C)c(O)cc2O)c1-c1ccc(CN2CCOCC2)cc1 [Luminespib] + COc1cccc2cc(-c3nc([C@H]4CC[C@H](C(=O)O)CC4)n4ncnc(N)c34)[nH]c12 [OSI-027] (partner 0.5 µM)', 'relative viability', 0.0814),
  ('CCNC(=O)c1noc(-c2cc(C(C)C)c(O)cc2O)c1-c1ccc(CN2CCOCC2)cc1 [Luminespib] + Nc1nc2[nH]cc(CCc3ccc(C(=O)N[C@@H](CCC(=O)O)C(=O)O)cc3)c2c(=O)[nH]1 [Pemetrexed] (partner 0.2 µM)', 'relative viability', 0.106);

---

- Tested on: HOP-62
- experimental.protocol: relative viability (nuclei count vs DMSO), 5 days (fraction); higher = more cells survive
- measurement.parameters: first compound 0.2 µM
measurement.name: relative viability

INSERT INTO measurements (molecule, measurement_name, numeric_result) VALUES
  ('CCNC(=O)c1noc(-c2cc(C(C)C)c(O)cc2O)c1-c1ccc(CN2CCOCC2)cc1 [Luminespib] + Cc1nc(NC(=O)N2CCC[C@H]2C(N)=O)sc1-c1ccnc(C(C)(C)C(F)(F)F)c1 [Alpelisib] (partner 2 µM)', 'relative viability', 0.927),
  ('CCNC(=O)c1noc(-c2cc(C(C)C)c(O)cc2O)c1-c1ccc(CN2CCOCC2)cc1 [Luminespib] + O=C(CCCCCCC(=O)Nc1ccccc1)NO [Vorinostat] (partner 1 µM)', 'relative viability', 0.0867),
  ('CCNC(=O)c1noc(-c2cc(C(C)C)c(O)cc2O)c1-c1ccc(CN2CCOCC2)cc1 [Luminespib] + NC(=O)Nc1cc(-c2cccc(F)c2)sc1C(=O)N[C@H]1CCCNC1 [AZD7762] (partner 0.2 µM)', 'relative viability', 0.109),
  ('Cc1csc(=NC2CCCCC2)n1/N=C/c1ccc(O)c(O)c1O [MIM1] + O=C(CCCCCCC(=O)Nc1ccccc1)NO [Vorinostat] (partner 1 µM)', 'relative viability', 0.655),
  ('Cc1csc(=NC2CCCCC2)n1/N=C/c1ccc(O)c(O)c1O [MIM1] + COc1cc2c(Oc3ccc(NC(=O)C4(C(=O)Nc5ccc(F)cc5)CC4)cc3F)ccnc2cc1OCCCN1CCOCC1 [Foretinib] (partner 0.25 µM)', 'relative viability', 1.14);
